# system tested: canine TRPM8 (Canis lupus familiaris)
# Sequence (Q1A7N1 1-1104): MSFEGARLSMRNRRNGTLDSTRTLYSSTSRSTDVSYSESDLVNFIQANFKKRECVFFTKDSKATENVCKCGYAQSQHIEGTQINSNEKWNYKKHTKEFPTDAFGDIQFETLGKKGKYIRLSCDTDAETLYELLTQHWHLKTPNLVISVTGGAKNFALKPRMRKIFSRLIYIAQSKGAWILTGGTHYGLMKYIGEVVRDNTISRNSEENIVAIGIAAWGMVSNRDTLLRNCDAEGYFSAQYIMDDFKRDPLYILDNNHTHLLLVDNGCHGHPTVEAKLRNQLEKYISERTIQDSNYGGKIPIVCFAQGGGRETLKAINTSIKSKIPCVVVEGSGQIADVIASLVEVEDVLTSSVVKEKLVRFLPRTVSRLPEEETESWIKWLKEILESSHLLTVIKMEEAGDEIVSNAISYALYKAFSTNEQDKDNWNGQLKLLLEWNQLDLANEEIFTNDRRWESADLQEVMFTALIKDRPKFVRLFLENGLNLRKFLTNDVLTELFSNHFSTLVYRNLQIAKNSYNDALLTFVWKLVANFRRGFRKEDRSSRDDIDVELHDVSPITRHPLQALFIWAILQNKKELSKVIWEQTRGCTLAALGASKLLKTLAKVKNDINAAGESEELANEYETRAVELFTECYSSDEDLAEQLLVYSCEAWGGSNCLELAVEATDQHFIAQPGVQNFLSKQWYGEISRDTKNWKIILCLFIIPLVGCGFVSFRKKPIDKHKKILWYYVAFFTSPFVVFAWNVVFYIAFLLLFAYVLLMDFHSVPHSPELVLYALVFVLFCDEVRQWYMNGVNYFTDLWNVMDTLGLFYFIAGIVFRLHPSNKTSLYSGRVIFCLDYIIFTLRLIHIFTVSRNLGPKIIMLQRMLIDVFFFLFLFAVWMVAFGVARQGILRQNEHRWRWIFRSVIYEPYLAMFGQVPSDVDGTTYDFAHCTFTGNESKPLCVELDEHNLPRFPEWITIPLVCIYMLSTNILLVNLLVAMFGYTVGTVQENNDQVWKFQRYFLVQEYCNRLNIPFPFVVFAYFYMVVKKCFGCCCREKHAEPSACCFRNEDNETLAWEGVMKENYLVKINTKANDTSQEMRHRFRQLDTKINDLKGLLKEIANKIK
# experiment notes: In Vitro Canine TRPM8 Functional Assay (Ca2+ fluorescence, icilin activation)
# experimental setup: HEK293 cells stably expressing canine TRPM8; icilin activation; Ca2+ fluorescence
List of pIC50 values.
Please note pIC50 is a logarithmic value: minus log10 of concentration in mol/L. Answer with that number alone.

Sample answers from the record:
[[record]]
molecule = "O=C(C(Nc1ccccc1F)c1ccc(N2CCOCC2)nc1)N1CCCC1c1ccccc1F (centres unmarked)"
system_tested = "canine TRPM8 (Canis lupus familiaris)"
number = 8.15

[[record]]
molecule = "COC(=O)c1cc(C(Nc2ccccc2F)C(=O)N2CCCC2c2ccccc2F)ccc1Cl (mixture of isomers)"
system_tested = "canine TRPM8 (Canis lupus familiaris)"
number = 7.89


For O=C(O)c1ccc(-c2ccc(C(Nc3ccccc3F)C(=O)N3CCCC3c3ccccc3F)cc2)cc1 (mixture of isomers) [Cpd 337] the molecule record lists pIC50 as 7.25

For O=C(C(Nc1ccccc1F)c1ccc(C(F)(F)F)cc1)N1CCCC1c1cccc(F)c1 (centres unmarked) [Cpd 132] the molecule record lists pIC50 as 8.05

For O=C(C(Nc1ccc(F)cc1)c1ccc(Cl)cc1)N1CCCC1c1ccccc1 (centres unmarked) the molecule record lists pIC50 as 7.16

For O=C(C(Nc1ccccc1F)c1ccc(C(F)(F)F)cc1)N1CCCC1c1ccccc1 (single isomer, unassigned) [Cpd 190] the molecule record lists pIC50 as 7.07

For CN(c1ccccc1F)C(C(=O)N1Cc2ccccc2C1)c1ccc(C(F)(F)F)cc1 (centres unmarked) the molecule record lists pIC50 as 7.35

For O=C(C(Nc1cccc(F)c1)c1ccc(C(F)(F)F)cc1)N1CCCC1c1ccccc1Cl (centres unmarked) the molecule record lists pIC50 as 6.86

For COC(=O)c1ccc(C2CCCN2C(=O)C(Nc2ccccc2F)c2ccc3c(c2)CCO3)cc1 (centres unmarked) the molecule record lists pIC50 as 7.04

For CCOC(=O)c1ccc(C(Nc2ccccc2F)C(=O)N2CCCC2c2ccccc2F)cc1 (centres unmarked) the molecule record lists pIC50 as 7.57

For O=C(O)c1ccc(C2CCCN2C(=O)C(Nc2ccccc2F)c2ccc(C(F)(F)F)cc2)cc1 (centres unmarked) the molecule record lists pIC50 as 7.18

For CC(=O)Nc1ccc(C2CCCN2C(=O)C(Nc2ccccc2F)c2ccc(C(F)(F)F)cc2)cc1 (centres unmarked) the molecule record lists pIC50 as 8.52

For O=C(C(Nc1ccccc1F)c1ccc(Br)cc1)N1CCCc2ccccc21 (centres unmarked) the molecule record lists pIC50 as 7.52

For O=C(C(Nc1c(F)cccc1F)c1ccc(Br)cc1)N1CCC[C@H]1c1ccccc1F (some centres unmarked) the molecule record lists pIC50 as 8.30

For CC(C)(C)c1ccc(C(Nc2ccccc2)C(=O)N2CCC[C@H]2CNc2ccccc2)cc1 (single isomer, unassigned) the molecule record lists pIC50 as 6.29

For CC(C)(C)c1ccc(C(Nc2ccccc2)C(=O)N2CCCCC2Cc2ccccc2)cc1 (centres unmarked) the molecule record lists pIC50 as 6.38

For COC(=O)C1CCC(c2ccccc2)N1C(=O)C(Nc1ccccc1)c1ccc(Cl)cc1 (single isomer, unassigned) [Cpd 212] the molecule record lists pIC50 as 7.77

For O=C(C(Nc1ccccc1)c1ccc(Br)cc1)N1CCCC1c1ccccc1Cl (centres unmarked) the molecule record lists pIC50 as 7.38

For O=C(C(Nc1cccc(F)c1F)c1ccc(Cl)cc1)N1CCCC1c1ccccc1Cl (single isomer, unassigned) [Cpd 165] the molecule record lists pIC50 as 6.79

For O=C(C(Nc1ccccc1F)c1ccc(Br)cc1)N1CCCC1c1ccccc1 (centres unmarked) the molecule record lists pIC50 as 7.85

For CN(C)c1ccc(C2CCCN2C(=O)C(Nc2ccccc2F)c2ccc(Br)cc2)cc1 (centres unmarked) the molecule record lists pIC50 as 7.05

For COC(=O)C1CCC(c2ccccc2)N1C(=O)C(Nc1ccccc1F)c1ccc(Br)cc1 (single isomer, unassigned) [Cpd 208] the molecule record lists pIC50 as 8.05

For COC(=O)c1cccc(NC(C(=O)N2CCCC2c2ccccc2F)c2ccc3c(c2)CCO3)c1 (centres unmarked) the molecule record lists pIC50 as 7.29

For O=C(C(Nc1ccccc1F)c1ccc(C(F)(F)F)cc1)N1CCCC1c1ccccc1Cl (single isomer, unassigned) [Cpd 189] the molecule record lists pIC50 as 8.05

For O=C(C(Nc1ccc(F)cc1)c1ccc(Cl)cc1)N1Cc2ccccc2C1 (centres unmarked) the molecule record lists pIC50 as 6.89

For CC(C)(C)c1ccc(C(Nc2ccccc2)C(=O)N2CCCC2c2cccc(Cl)c2)cc1 (single isomer, unassigned) [Cpd 9] the molecule record lists pIC50 as 6.79

Provenance of the data: patent US8143259B2
